Biological target: Fuc(a1-2)Gal
Assay: glycan array binding signal (z-score within array); higher = stronger binding
Details: glycan notation: IUPAC condensed, linker removed
Shown is part of a subset that was picked to be rich in the strongest signals.

binder	glycan array binding signal (z-score)
Intelectin 1 (Homo sapiens), Q8WWA0 (protein) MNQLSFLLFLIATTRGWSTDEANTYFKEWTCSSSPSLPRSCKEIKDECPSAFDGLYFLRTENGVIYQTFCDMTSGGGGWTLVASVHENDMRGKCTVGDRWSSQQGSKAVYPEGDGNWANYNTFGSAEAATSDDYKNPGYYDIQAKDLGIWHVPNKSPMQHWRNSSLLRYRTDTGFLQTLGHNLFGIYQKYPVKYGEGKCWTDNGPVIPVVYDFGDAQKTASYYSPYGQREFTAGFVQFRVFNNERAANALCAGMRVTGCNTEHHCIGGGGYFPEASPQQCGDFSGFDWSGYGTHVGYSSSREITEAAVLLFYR	2.53
Clec18A (Homo sapiens) (protein) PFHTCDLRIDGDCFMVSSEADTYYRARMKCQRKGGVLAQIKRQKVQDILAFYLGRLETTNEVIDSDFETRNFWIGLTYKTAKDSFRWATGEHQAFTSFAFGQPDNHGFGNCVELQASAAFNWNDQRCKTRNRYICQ	-0.536
Mindin (Homo sapiens), Q9BUD6 (protein) MENPSPAAALGKALCALLLATLGAAGQPLGGESICSARALAKYSITFTGKWSQTAFPKQYPLFRPPAQWSSLLGAAHSSDYSMWRKNQYVSNGLRDFAERGEAWALMKEIEAAGEALQSVHEVFSAPAVPSGTGQTSAELEVQRRHSLVSFVVRIVPSPDWFVGVDSLDLCDGDRWREQAALDLYPYDAGTDSGFTFSSPNFATIPQDTVTEITSSSPSHPANSFYYPRLKALPPIARVTLVRLRQSPRAFIPPAPVLPSRDNEIVDSASVPETPLDCEVSLWSSWGLCGGHCGRLGTKSRTRYVRVQPANNGSPCPELEEEAECVPDNCV	-0.273
TbCVNHOa (Tuber borchii), Q5MK11 (protein) GSHIGPYMSYADSSRNAVLTNGGRTLRAECRNADGNWVTSELDLDTCIGNPNGFLGWGMQNFSHSSEDIKLEEGGRKLTCRPKTVDGGFRERQGIDLNRIQNVNGRLVFQ	-0.262
Siglec-H (Mus musculus), Q4QQK7 (protein) MLLSRLLPLLWVLKWASGNCFILPREVIGTYPSLTLELQSVTVQEGLCVLVPCHLIEYPMNRWSDAAFGYWFHEGENTHPDSLVATNKPYQLVQKEMQSRFHFSGDCSLDIRDAQKGDNGSYFFRLEKGGKTWNFCEERISVHVTDLTHSPNISIPQTLELGRPTNVMCSVPWACERGTPPIFSWMSAALISLGPTTTLSSVLTLTPRLQDHGTNLTCQVTFPGAGVTVQKTIQLNVTYNSQNSTAHVSGRVGPGKPRPLADVVQVAMGEAAIKFLLLGICFFFLSKRSHTKRVERPATHMDQAHAVMD	-0.112
Mincle (Bos taurus) (protein) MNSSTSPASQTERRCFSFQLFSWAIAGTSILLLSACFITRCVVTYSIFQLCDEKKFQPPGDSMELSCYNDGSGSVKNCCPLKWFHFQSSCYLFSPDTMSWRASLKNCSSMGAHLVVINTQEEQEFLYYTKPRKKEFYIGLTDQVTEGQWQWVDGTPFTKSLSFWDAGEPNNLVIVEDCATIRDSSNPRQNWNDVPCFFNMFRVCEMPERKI	3.49
Protectin (Homo sapiens), P13987 (protein) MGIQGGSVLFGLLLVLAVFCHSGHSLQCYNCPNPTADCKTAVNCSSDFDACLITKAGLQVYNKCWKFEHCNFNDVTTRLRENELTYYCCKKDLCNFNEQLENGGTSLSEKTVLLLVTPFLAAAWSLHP	-0.701
